Tested on: FM-MEL-6
Test: drug sensitivity score (DSS) (DSS (unitless, 0-50 scale)); higher = more sensitive (stronger viability inhibition); extreme values may be limits of the assay
Conditions: 72 h; culture: 2D
Kind request: treat 0.7 as inclusive, so drug sensitivity score at 0.7 or higher is Condition met, anything lower is Condition not met.

Could you tell me if the measured drug sensitivity score of `CCCC(CCC)C(=O)O` reaches 0.7 or more?
Condition not met

Try the compound `O=C(CCCCCCNC(=O)c1cnc(N(c2ccccc2)c2ccccc2)nc1)NO`
Condition met

Please answer likewise for `O=C(c1cccc(Cl)c1F)N1CCN(Cc2cccc(Nc3nccs3)n2)CC1`
Condition not met

Also `CO[C@H]1CC[C@H](N2C(=O)CNc3ncc(-c4ccc(C(C)(C)O)nc4)nc32)CC1` , if possible.
Condition met

Now try `S=C(NCc1ccc2c(c1)OCO2)N1CCN(c2ncnc3c2oc2ccccc23)CC1` .
Condition not met

Let us now turn to `Cc1nc(=O)c2cc(CN(C)c3ccc(C(=O)N[C@@H](CCC(=O)O)C(=O)O)s3)ccc2[nH]1`
Condition not met

What do you have for `CCCOc1ccn2c(C(C)=O)cc(-c3ccccc3S(C)(=O)=O)c2c1` ?
Condition not met

---

The entries below come with measured drug sensitivity score values attached.
Test system: FM-MEL-6
Assay: drug sensitivity score (DSS) (DSS (unitless, 0-50 scale)); higher = more sensitive (stronger viability inhibition); extreme values may be limits of the assay
Settings: 72 h; culture: 2D
Write the value as a bare number.

Consider the following illustrative entries.
{"Molecule": "CCc1cncnc1N1CCN(Cc2nc3ccc(C(F)(F)F)cc3[nH]2)CC1", "drug sensitivity score": 0.7}
{"Molecule": "O=C(Nc1ccc(OC(F)(F)Cl)cc1)c1cnc(N2CC[C@@H](O)C2)c(-c2cc[nH]n2)c1 [Asciminib]", "drug sensitivity score": 0}
{"Molecule": "C[C@H]1CN(C2COC2)CCN1c1ccc(Nc2cc(-c3ccnc(N4CCn5c(cc6c5CC(C)(C)C6)C4=O)c3CO)cn(C)c2=O)nc1 [GDC-0853]", "drug sensitivity score": 0}
{"Molecule": "C1=N/C2=N/c3ccc(OCCN4CCCC4)c(c3)COC/C=C/COCc3cccc(c3)C(=C1)N2 [Pacritinib]", "drug sensitivity score": 7.7}

Recall the recorded drug sensitivity score for COc1ncc(-c2ccc3nccc(-c4ccnnc4)c3c2)cc1NS(=O)(=O)c1ccc(F)cc1F [Omipalisib] with FM-MEL-6 and state it.
14.7

---

System: Bowes
Assay: drug sensitivity score (DSS) (DSS (unitless, 0-50 scale)); higher = more sensitive (stronger viability inhibition); extreme values may be limits of the assay
Conditions: 72 h; culture: 2D
I would appreciate it if you labelled entries MET when drug sensitivity score is 2 or higher, otherwise NOT MET.

{"Smiles string": "CN[C@@H](C)C(=O)N[C@H]1CN(C(=O)CC(C)C)CC[C@H]2CC[C@@H](C(=O)NC(c3ccccc3)c3ccccc3)N2C1=O", "Group": "NOT MET"}
{"Smiles string": "CCN(CC)CCNC(=O)c1c(C)[nH]c(/C=C2\\C(=O)Nc3ccc(-c4csc(-c5ccccc5)n4)cc32)c1C", "Group": "NOT MET"}
{"Smiles string": "CNC(=O)c1cc(Oc2ccc(NC(=O)Nc3ccc(Cl)c(C(F)(F)F)c3)cc2)ccn1", "Group": "NOT MET"}
{"Smiles string": "Nc1ncnc2c1nc(Cl)n2[C@@H]1O[C@H](CO)[C@@H](O)[C@H]1O", "Group": "MET"}
{"Smiles string": "Cc1ccc(NC(=O)c2ccc(CN3CC[C@H](N(C)C)C3)c(C(F)(F)F)c2)cc1Nc1nccc(-c2cncnc2)n1", "Group": "NOT MET"}

# check: drug sensitivity score of `CN1CCN(C2CCN(C(=O)Nc3cc(Oc4ccc(NC(=O)C5(C(=O)Nc6ccc(F)cc6)CC5)c(F)c4)ccn3)CC2)CC1` is greater than or equal to 2
MET

Next up: `CCN(CC)CCNC(=O)c1c(C)[nH]c(/C=C2\C(=O)Nc3ccc(F)cc32)c1C`
NOT MET

For `CNc1nc(-c2ccc3c(N)n[nH]c3c2)cc(N2C[C@@H](C(=O)NC3CCCCC3)CC[C@H]2C)n1` then?
NOT MET

Entry `CC[C@H](NC(=O)[C@H](C)NC)C(=O)N1C[C@@H](O)C[C@H]1Cc1c(-c2[nH]c3cc(F)ccc3c2C[C@@H]2C[C@H](O)CN2C(=O)[C@H](CC)NC(=O)[C@H](C)NC)[nH]c2cc(F)ccc12` please
NOT MET

Please give the result for `Cn1cc(C[C@@H](N)C(=O)O)c2ccccc21` too.
NOT MET

---

System: Bowes
Assay: drug sensitivity score (DSS) (DSS (unitless, 0-50 scale)); higher = more sensitive (stronger viability inhibition); extreme values may be limits of the assay
Conditions: 72 h; culture: 2D
Think of 1 as a floor: if drug sensitivity score stands on it or above, it is label 1; beneath it, label 0.

Worked examples follow.
{"Compound": "CC/C(=C(\\c1ccccc1)c1ccc(OCCN(C)C)cc1)c1ccccc1", "Group": "label 0"}
{"Compound": "CN1CCN(c2ccc3nc(-c4c(N)c5c(F)cccc5[nH]c4=O)[nH]c3c2)CC1", "Group": "label 0"}
{"Compound": "Cc1cccc(-c2[nH]c(CNc3ccccc3F)nc2-c2ccc3ncnn3c2)n1", "Group": "label 0"}

# check: drug sensitivity score of `C[C@@H](C(=O)O)c1ccc(-c2ccccc2)c(F)c1` is greater than or equal to 1
label 0

Request: Cc1sc2c(c1C)C(c1ccc(Cl)cc1)=N[C@@H](CC(=O)NCCCCNC(=O)COc1cccc3c1C(=O)N(C1CCC(=O)NC1=O)C3=O)c1nnc(C)n1-2 (stereo not given in full)
label 1

Same question, `CN(C)C/C=C/C(=O)Nc1cc2c(Nc3ccc(F)c(Cl)c3)ncnc2cc1O[C@H]1CCOC1` this time
label 1

---

Test system: FM-MEL-6
Assay: drug sensitivity score (DSS) (DSS (unitless, 0-50 scale)); higher = more sensitive (stronger viability inhibition); extreme values may be limits of the assay
Conditions: 72 h; culture: 2D
The following molecules are listed with their measured drug sensitivity score values.
Please reply with the value in numeric form only.

See these solved cases before continuing.
{"Molecule": "C=CC[C@@H]1/C=C(\\C)C[C@H](C)C[C@H](OC)[C@H]2O[C@@](O)(C(=O)C(=O)N3CCCC[C@H]3C(=O)O[C@H](/C(C)=C/[C@@H]3CC[C@@H](O)[C@H](OC)C3)[C@H](C)[C@@H](O)CC1=O)[C@H](C)C[C@@H]2OC [Tacrolimus]", "Parameter": "drug sensitivity score", "Observed measurement": 0.1}
{"Molecule": "CCS(=O)(=O)N1CCN(c2ccc(Nc3ncc(C(N)=O)c(NC4CC4)n3)cc2)CC1 [Cerdulatinib]", "Parameter": "drug sensitivity score", "Observed measurement": 0.1}

Please find the next molecule below.
Quick one: drug sensitivity score of CN1CCN(C(=O)c2ccc3cc(CCNc4ncnc5ccc(C#N)cc45)ccc3c2)CC1 [Senexin B] ?
0.1

---

Tested on: FM-MEL-6
Test: drug sensitivity score (DSS) (DSS (unitless, 0-50 scale)); higher = more sensitive (stronger viability inhibition); extreme values may be limits of the assay
Details: 72 h; culture: 2D
drug sensitivity score values for the molecules below.
I'd appreciate a reply containing only the number, no unit.

{"Molecule": "O=C1Cc2cc(C(=O)NC3C[C@H]4CC[C@@H](C3)N4S(=O)(=O)CC3CCN(CCCC(F)(F)F)CC3)c(Cl)cc2N1 (some centres not stated)", "Observed measurement": 0}
{"Molecule": "NC(=O)Nc1cc(-c2cccc(F)c2)sc1C(=O)N[C@H]1CCCNC1", "Observed measurement": 6.5}
{"Molecule": "CNC(=O)c1ccc(N2C(=S)N(c3ccc(C#N)c(C(F)(F)F)c3)C(=O)C2(C)C)cc1F [Enzalutamide]", "Observed measurement": 0}
{"Molecule": "Cc1ccc(=O)n(-c2ccccc2)c1", "Observed measurement": 0}

Query: drug sensitivity score; subject: `CCc1cnn2c(NCc3ccc[n+]([O-])c3)cc(N3CCCC[C@H]3CCO)nc12`
21.7

# repeat for `Nc1nc(NC2CC2)cc(-c2cccc(Cl)c2Cl)n1`
0

And for `CN[C@@H](C)C(=O)N[C@H]1CN(C(=O)CC(C)C)CC[C@H]2CC[C@@H](C(=O)NC(c3ccccc3)c3ccccc3)N2C1=O` ?
2.2

---

System: Bowes
Assay: drug sensitivity score (DSS) (DSS (unitless, 0-50 scale)); higher = more sensitive (stronger viability inhibition); extreme values may be limits of the assay
Settings: 72 h; culture: 2D
Some compounds, each annotated with its measured drug sensitivity score.
Reply briefly: the number, and no unit.

Record `CNC(=O)c1ccccc1Nc1cc(Nc2ccc(N3CCOCC3)cc2OC)ncc1C(F)(F)F` : what is its drug sensitivity score with Bowes?
3

// query: `C=CC(=O)Nc1cccc(Nc2nc(Nc3ccc(OCCOC)cc3)ncc2F)c1`
2.1

How about `NC(=S)N/N=C/c1ncccc1N` ?
1.9

Repeat with `CN(C)Cc1c(C(=O)NCCOc2ccc(C(=O)NO)cc2)oc2ccccc12`
10
